MEASUREMENT TARGET: KRAS G12D / Ras binding domain of C-RAF (Homo sapiens (Human), UniProt P01116, G12D)
Sequence (P01116 other isoform, or with tags, fused parts or gaps G12D (already in the parent)): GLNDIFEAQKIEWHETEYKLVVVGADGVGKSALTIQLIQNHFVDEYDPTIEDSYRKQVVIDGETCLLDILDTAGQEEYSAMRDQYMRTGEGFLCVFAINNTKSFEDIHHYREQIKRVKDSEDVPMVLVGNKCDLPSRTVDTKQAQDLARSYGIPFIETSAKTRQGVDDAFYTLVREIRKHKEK
MEASUREMENT DESCRIPTION: RAS:RAF-RBD binding assay (cRaf), TR-FRET
ASSAY SETUP: IC50 (nM) (cRaf), biotinylated KRAS G12D, GST-C-RAF RBD
Each entry below carries its reported IC50.
Reply numerically in nM, unit not repeated.

Example entries begin here.
{"SAMPLE SMILES": "Cc1cc2[nH]nc(C)c2c(-c2c(F)cc3c(N4C[C@H]5CC[C@@](C)(C4)N5)nc(OCC4(CN5CC[C@@H](F)C5)CC4)nc3c2F)c1C", "MEASUREMENT UNITS": "nM", "IC50": 18900}
{"SAMPLE SMILES": "CN(C)C[C@@]1(COc2nc(N3C[C@H]4CC[C@@](C)(C3)N4)c3cnc(-c4cc(O)cc5cccc(Cl)c45)c(F)c3n2)CC1(F)F", "MEASUREMENT UNITS": "nM", "IC50": 89.9}

Turning to the following compound.
Qu. Return reported IC50; argument: C[C@]12CC[C@H](CN(c3nc(OCC4(CN5CC[C@@H](F)C5)CC4)nc4c(F)c(-c5cc(O)cc6ccccc56)c(F)cc34)C1)N2
Ans. 1980
